Provide the reported IC50 of each item.
- SYSTEM UNDER TEST: DYRK1A (Homo sapiens (Human), UniProt Q13627)
- ASSAY REMARKS: DYRK1A Inhibition Assay
- Assay type: biochemical
- RUN PARAMETERS: Compounds of Formula (I); DYRK1A 1 nM, ATP 20 μM, Ser/Thr 18 peptide 2 μM, 90 minutes; read-out: DYRK1 IC50

Task: Report IC50 for CC(C)CN1CCC(c2cc3c(ncc4ccc(-c5cn[nH]c5)cc43)[nH]2)CC1 tested on DYRK1A (Homo sapiens (Human), UniProt Q13627).
Result: 10 to 100 nM

Task: Report IC50 for Cc1c(-c2cccnc2)[nH]c2ncc3cnccc3c12 tested on DYRK1A (Homo sapiens (Human), UniProt Q13627).
Result: 100 to 1000 nM

Task: Report IC50 for CC(C)CN1CCC(c2cc3c(ncc4ccc(-c5cncs5)cc43)[nH]2)CC1 tested on DYRK1A (Homo sapiens (Human), UniProt Q13627).
Result: ≤ 10 nM

Task: Report IC50 for O[C@@H]1CCN(c2cncc(-c3ccc4cnc5[nH]cc(C6CCC6)c5c4c3)c2)C1 tested on DYRK1A (Homo sapiens (Human), UniProt Q13627).
Result: ≤ 10 nM

Task: Report IC50 for CN1CCC(c2nccc3c2cnc2[nH]cc(-c4ccncc4)c23)CC1 tested on DYRK1A (Homo sapiens (Human), UniProt Q13627).
Result: 100 to 1000 nM

Task: Report IC50 for Cc1c(C2CCNCC2)[nH]c2ncc3ccc(-c4cnn(C)c4)cc3c12 tested on DYRK1A (Homo sapiens (Human), UniProt Q13627).
Result: ≤ 10 nM

Task: Report IC50 for Cc1c(C2CCN(CC(F)F)CC2)[nH]c2ncc3ccc(-c4cnn(C)c4)cc3c12 tested on DYRK1A (Homo sapiens (Human), UniProt Q13627).
Result: ≤ 10 nM

Task: Report IC50 for Cc1cc2c(ncc3ccc(-c4cnc(C#CC5CCOCC5)s4)cc32)[nH]1 tested on DYRK1A (Homo sapiens (Human), UniProt Q13627).
Result: 10 to 100 nM

Task: Report IC50 for Cn1cc(-c2ccc3cnc4c(c3c2)CC(=O)N4)cn1 tested on DYRK1A (Homo sapiens (Human), UniProt Q13627).
Result: 10 to 100 nM

The origin of these recorded values is patent US20250066349A1.
